- system-under-test: T1, PD-L1 (UniProt Q9NZQ7 19-238, limits assumed)
- T1 construct: also called unrelated protein PD-L1
- T1 sequence (Q9NZQ7 19-238 limits assumed): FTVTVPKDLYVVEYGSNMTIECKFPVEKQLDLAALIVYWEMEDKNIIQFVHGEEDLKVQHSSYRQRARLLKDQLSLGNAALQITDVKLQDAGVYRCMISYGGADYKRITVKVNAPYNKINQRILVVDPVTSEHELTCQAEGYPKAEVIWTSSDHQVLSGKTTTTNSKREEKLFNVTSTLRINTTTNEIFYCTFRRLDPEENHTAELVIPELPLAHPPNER
- run-description: ELISA EC50 assay
parameter-measured: binding result

[[record]]
binder = "3963H03 (antibody, human IgG1, kappa, V domains shown, fully human IgG1 kappa, B-cell cloning hit from OmniRat; also called 3963H03 VH; 3963H03 VK) VH: EIQLVQSGSELKKPGASVKVSCKASGYTFTSYPMNWVRQAPGQGLEWMGWINTNTGNPTYAQGFTGRFVFSLDTSVSTAYLQISSLKAEDTAVYYCARVGGYSVDEYAFDVWGQGTMVTVSS VL: AIRLTQSPSFLSASVGDRVTITCRASQGISSYLAWYQQKPGKAPKLLIYAASTLQSGVPSRFSGSGSGTEFTLTISSLQPEDFATYYCQQLNSYPTFGGGTKVEIKR"
observed_measurement = "no binding"

[[record]]
binder = "3964A06 (antibody, human IgG1, V domains shown) VH: EVQLVQSGSELKKPGASVKVSCKASGYTFTAYPMNWVRQAPGQGLEWMGWINTNTGNPTYAQGFTGRFVFSLDTSVSTAYLQISSLKAEDTAVYYCARVGGYSVYDYAFDIWGQGTMVTVSS VL: DIQLTQSPSFLSASVGDRVTITCRASQGISSYLAWYQQKPGKAPKLLIYAASTLQSGVPSRFSGSGSGTEFTLTISSLQPEDFATYYCQQLNSYPTFGGGTKVEIK"
observed_measurement = "no binding"

[[record]]
binder = "3965D08 (antibody, human IgG1, V domains shown, constant regions correspond to those of H03-12 (human IgG1, kappa)) VH: EVQLVQSGSELKKPGASVKVSCKASGYTFTSYPMNWVRQAPGQGLEWMGWINTNTGNPTYAQGFTGRFVFSLDTSVSTAYLQISSLKAEDTAVYYCARTGYSGSYYWFDPWGQGTLVTVSS VL: DIRLTQSPSFLSASVGDRVTITCRASQGISSYLAWYQQKPGKAPKFLIYAASTLQSGVPSRFSGSGSGTEFTLTISSLQPEDFATYYCQQLNSYLTFGQGTRLEIK"
observed_measurement = "no binding"

